tested on: Lefty1; test: Lefty1 protein binding to printed compounds – biochemical, small-molecule microarray, 635/667 nm fluorescence, primary screen (AID 1139); settings: fluorescence 635/667, higher = more signal
Measured composite z-score, listed per entry for reference.
RECORDED ENDPOINT: composite z-score

* CC1(C)[C@@H]2CC(C(O)C3C=CC4C(=O)N(c5ccccc5)C(=O)C4N3Nc3ccccc3F)=C[C@@H]1C2 (stereo partly drawn) | 0.655
* [N-]=[N+]=NCc1ccccc1C[C@]1(C(=O)NCCN2CCOCC2)COC(c2ccc(OCCCO)cc2)=N1 | 0.346
* CC(C)C(CO)N1C(=O)[C@@H]2[C@H]3C(=O)OCC=C[C@H]3OC23C=CCN(CCN2CCOCC2)C(=O)[C@@H]13 (stereo partly drawn) | 0.817
* CN(C)C(=O)[C@]1(Cc2ccccc2N=[N+]=[N-])N=C(c2ccc(OCCCO)cc2)O[C@@H]1c1ccccc1CN=[N+]=[N-] | 0.624
* CC(C)CNC(=O)[C@@]1(c2ccc([N+](=O)[O-])cc2)CC(=O)N(C(C)C)[C@@H]1c1ccc(CO)cc1 | -0.455
* CCCCCCC#C[Si](O[C@H](c1ccccc1)c1cn(Cc2cccc(Cl)c2)nn1)(C(C)C)C(C)C | 0.234
* O=C1CSC(c2cccc([N+](=O)[O-])c2)N1c1ccccc1 (stereo not drawn) | 0.257
* CO[C@H]1O[C@H](CO)[C@@H](OC(=O)Nc2ccc(C(F)(F)F)cc2)[C@H](OC(=O)Nc2ccccc2)[C@H]1OC(=O)Nc1ccccc1 | 0.88
